Origin of measurements: PubChem BioAssay AID504329

# assay-explanation: H1N1 influenza NS1A inhibitors, functional cell based assay (AID 504329)
# particulars: percent inhibition, at 12.5 µM, stronger effect = higher value
Hit rate of the full screen: of about 340,000 compounds, about 1,000 (0.29%) were called active. The list is a sample of the results. Entries with a potency or affinity are not part of this list.
observable: inhibition (%)
Write it as a number; the unit % goes unstated.

Query: Identify measured inhibition corresponding to `CN(CC(=O)Nc1ccccc1Cl)CC(=O)N1CCc2ccccc21`
Reply: -8.6

Query: Identify measured inhibition corresponding to Cc1ccc(CNC(=O)C2CCC(=O)N(CCc3cccc(F)c3)C2)s1 (stereo not drawn)
Reply: 11.3

Query: Identify measured inhibition corresponding to `Cn1nccc1C(=O)Nc1sc2c(c1C(N)=O)CCCC2`
Reply: -3.24

Query: Identify measured inhibition corresponding to O=C(NC1(c2ccccc2)CC1)C1CCC(=O)N(Cc2ccc(Cl)cc2)C1 (stereo not drawn)
Reply: 8.58

Query: Identify measured inhibition corresponding to `CCS(=O)(=O)NCc1ccc2c(c1)cc(C)n2C`
Reply: 10.3

Query: Identify measured inhibition corresponding to O=C(CC1CC2CCC1C2)Nc1nc(-c2ccccn2)cs1 (stereo not drawn)
Reply: -17.9

Query: Identify measured inhibition corresponding to `Cc1ccc(S(=O)(=O)NCc2csc(C)n2)cc1`
Reply: -0.87

Query: Identify measured inhibition corresponding to Cc1ccc(N2CC(C(=O)N3CCC(C(=O)NCCCOC(C)C)CC3)CC2=O)cc1 (stereo not drawn)
Reply: -11.9

Query: Identify measured inhibition corresponding to `Cc1cc2ccccc2n1CCNC(=O)C(C)C`
Reply: 4.98

Query: Identify measured inhibition corresponding to `CCn1c(C)nc2cc(C(=O)N/N=C/c3cccc(OC)c3O)ccc21`
Reply: 5.9

Query: Identify measured inhibition corresponding to O=C(CN1C(=O)C2CCCCC2C1=O)Nc1nc(-c2ccc(F)cc2)cs1 (stereo not drawn)
Reply: -0.75

Query: Identify measured inhibition corresponding to O=C1NC2NC(=O)N(C(Cc3ccccc3)C(=O)O)C2N1 (stereo not drawn)
Reply: 7.19

Query: Identify measured inhibition corresponding to `CCN(/C(N)=N/c1nc(C)cc(C)n1)c1ccccc1`
Reply: -6.77

Query: Identify measured inhibition corresponding to `O=C(Nc1nc(-c2ccccn2)cs1)C1CC1`
Reply: 15.6

Query: Identify measured inhibition corresponding to Cc1cc(C)c2oc(C(=O)N(Cc3ccccc3)C3CCS(=O)(=O)C3)cc(=O)c2c1 (stereo not drawn)
Reply: -2.06

Query: Identify measured inhibition corresponding to `O=S(=O)(NCc1ccccc1)c1ccc2ccccc2c1`
Reply: -9.3

Query: Identify measured inhibition corresponding to `CCOC(=O)c1c(C)[nH]c(C)c1S(=O)(=O)N(C)CC(=O)Nc1ccccc1F`
Reply: -8.93

Query: Identify measured inhibition corresponding to `O=C(Nc1nc(-c2ccccn2)cs1)C1CCCC1`
Reply: -0.49

Query: Identify measured inhibition corresponding to Cn1c(=O)c2cc(S(=O)(=O)NC(C(=O)N3CCCCCC3)c3ccccc3)ccc2n(C)c1=O (stereo not drawn)
Reply: -3.38

Query: Identify measured inhibition corresponding to CC(C(=O)NC1CCCCCC1)N(c1ccccc1)S(C)(=O)=O (stereo not drawn)
Reply: 7.2

Query: Identify measured inhibition corresponding to O=C(O)C(c1ccccc1)N1C(=O)/C(=C\c2ccc(O)c(O)c2)SC1=S (stereo not drawn)
Reply: 10.8

Query: Identify measured inhibition corresponding to `Cc1nc(CNS(=O)(=O)c2ccc(Oc3ccccc3)cc2)cs1`
Reply: -11.2

Query: Identify measured inhibition corresponding to CC1CC(=O)c2c(cc3c(-c4c(O)cc(O)c5c(O)c6c(cc45)OC(C)CC6=O)c(O)cc(O)c3c2O)O1 (stereo not drawn)
Reply: 24.8
